Tested on: A2058;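 further: reduction of A2058 cell growth, read out with a viability assay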
Test: cells
Format: functional, cell-based, Homo sapiens
Conditions: Homo sapiens, A2058
Description: SANGER: Inhibition of human A2058 cell growth in a cell viability assay.
Measurement Label: pIC50
FYI, pIC50 means -log10 of a concentration in mol per litre.

Request: Return pIC50 (reported value) for this compound: COc1cccc2c1C(=O)c1c(O)c3c(c(O)c1C2=O)C[C@@](O)(C(=O)CO)C[C@@H]3O[C@H]1C[C@H](N)[C@H](O)[C@H](C)O1 [DOXORUBICIN]
Result: 7.75

Request: Identify pIC50 associated with the compound Nc1ccn([C@@H]2O[C@H](CO)[C@@H](O)C2(F)F)c(=O)n1 [GEMCITABINE]
Result: 7.48

Request: Identify the reported pIC50 for the following entry. O=C(O)c1ccc(-c2c[nH]c3ncc(-c4ccccc4)cc23)cc1C1CCCC1 [GSK-650394]
Result: 4.87
